Below, each entry is listed with its recorded HC50.
- TEST NAME: Toxicity in sheep erythrocyte assessed as hemolysis
- Assay type: cell-based, Ovis aries
- REPORTED CONDITIONS: sheep erythrocytes
Square brackets hold non-standard residues; d marks the D form. Peptide text beside a SMILES is read from it. Lys(Me3) = C[N+](C)(C)CCCC[C@H](N)C(=O)O
Provide only the numeric value, understood in µM.

COMPOUND	RECORDED NUMBER
CC[C@H](C)[C@H](NC(=O)[C@H](CCCCN)NC(=O)[C@H](CCCCN)NC(=O)[C@H](Cc1ccccc1)NC(=O)[C@H](CC(C)C)NC(=O)[C@H](CCCCN)NC(=O)[C@H](Cc1c[nH]c2ccccc12)NC(=O)[C@@H](N)CCCC[N+](C)(C)C)C(=O)NCC(=O)N[C@@H](C)C(=O)N[C@H](C(=O)N[C@@H](CC(C)C)C(=O)N[C@@H](CCCCN)C(=O)N[C@H](C(=O)N[C@@H](CC(C)C)C(N)=O)C(C)C)C(C)C.[Cl-] (H-[Lys(Me3)]WKLFKKIGAVLKVL-NH2)	77.2

Please find the next compound below.
# HC50 of CC[C@H](C)[C@H](NC(=O)[C@H](CCCCN)NC(=O)[C@H](CCCCN)NC(=O)[C@H](Cc1ccccc1)NC(=O)[C@H](CC(C)C)NC(=O)[C@H](CCCCN)NC(=O)[C@H](Cc1c[nH]c2ccccc12)NC(=O)[C@@H](N)CCCCN)C(=O)NCC(=O)N[C@@H](C)C(=O)N[C@H](C(=O)N[C@@H](CC(C)C)C(=O)N[C@@H](CCCC[N+](C)(C)C)C(=O)N[C@H](C(=O)N[C@@H](CC(C)C)C(N)=O)C(C)C)C(C)C.[Cl-] (H-KWKLFKKIGAVL[Lys(Me3)]VL-NH2) = 157

====

- TEST NAME: Toxicity in sheep erythrocyte assessed as hemolysis
- Format: cell-based, Ovis aries
- REPORTED CONDITIONS: sheep erythrocytes
PARAMETER MEASURED: HC50
The answer should read as a number with its unit following.

Value of HC50 reported for the substance `H-KWKLFKKIGAVLKVL-NH2` is 40.2 µM

Data credit: ChEMBL document CHEMBL1212840
